# Test system: Enterococcus faecium
# Assay summary: Antimicrobial activity against drug-susceptible Enterococcus faecium ATCC 49624 measured after 18 hrs by broth microdilution method
# Type: functional
# Condition summary: ATCC 49624, 18 h
Flag rule - MIC less than 4 µg/mL flags criterion met; the remaining entries get criterion not met.

Does `CC1(C)S[C@@H]2[C@H](NC(=O)Cc3ccccc3)C(=O)N2[C@H]1C(=O)O` have MIC strictly under 4 µg/mL? criterion met

// query: `C[n+]1c(/C=C/c2cc3ccccc3[nH]2)ccc2ccccc21.[I-]` criterion not met

// query: `C[n+]1c(/C=C/c2cc3ccccc3[nH]2)cc(N2CCCC2)c2ccccc21.[I-]` criterion not met

// query: `C[n+]1c(/C=C/c2c[nH]c3ccccc23)cc(NCCN2CCCC2)c2ccccc21.[I-]` criterion not met

// query: `C[n+]1c(/C=C/c2c[nH]c3ccccc23)cc(N2CCOCC2)c2ccccc21.[I-]` criterion not met

// query: `CCN(CC)CCNc1cc(/C=C/c2cc3ccccc3[nH]2)[n+](C)c2ccccc12.[I-]` criterion not met

// query: `CC1CCN(c2cc(/C=C/c3c[nH]c4ccccc34)[n+](C)c3ccccc23)CC1.[I-]` criterion met
